assay: yeast display, Sf9 membrane polyspecificity reagent, FACS + sequencing; frameworks hold sequencing errors
READOUT TYPE: polyreactivity (PSR sort gate)

POLYMER SEQUENCE: QVQLVESGGGLVQAGGSLRLSCAASGFTFKRNAMGWYRQAPGKERELVAAISWSGSRTYADSVKGRFTISRDYAKNTVYVQMNSLKPEDTAVYYCAASPGRRRRPYASLIRYDYWGQGTQVTVSS
RECORDED RESULT: high polyreactivity

POLYMER SEQUENCE: QVQLVESVGGLVQAGGSLRLSCAASGSIRYYAMGWYRQAPGKERELVAAISSRGTNTYYADSVKGRFTISRDNAKNTVYLQMNSLKPEDTAVYYCNAVVGLGYNYWGQGTQVTVSS
RECORDED RESULT: high polyreactivity

POLYMER SEQUENCE: QVQLVESAGGLVQAGGSLRLSCAASGSTFTLYAMGWYRQAPGKERELVAAISWSGDSTYYADSVKGRFTISRDNAKNTVYLQMNSLKPEDTAVYYCAAENVYGYDYWGQGTQVTESS
RECORDED RESULT: high polyreactivity

POLYMER SEQUENCE: QVQLVESGGGLVHAGGSLRLSCAASGSTFSRNVMVWYRQAPGKEWELVAAISRGGSTNYADSVKGRFTISRENAKNTVYLQMKSLKPEDTAVYYCNAPRLGKFYNWGQGTQVTVSS
RECORDED RESULT: low polyreactivity

POLYMER SEQUENCE: QVQLVESGGGLVQAGGSLRLSCAASGSIFPYNVMGWYRPAPGQERELVAANTTGGRTNYADSVKGRFTISRDNAKNTVYLQMNSLKPEDTAVYYCAARYGYYDSRRWYYYSGQGTQVTVSS
RECORDED RESULT: high polyreactivity

POLYMER SEQUENCE: QVHLVESGGGLVQAGGSLRLSCAASGRIFRPYAMGWYRQAPGKERELVAGLTSSGGSTYYADSVKGRFTISRDNAKNTVYLHMNSRKPEDTALYYCAAGPDYGWRRYDYWGQGTQVTVSS
RECORDED RESULT: low polyreactivity

POLYMER SEQUENCE: QVQLVESGGGLVQAGGSLRLSCAASGFTFTYNDMGWYRQAPGKEREFVAAISSTGGSTNYADSVKGRFTISRDNAKNTVYLQMNSLKPEDTAGYYCATESYDSYGLYDYWGQGTQVTVSS
RECORDED RESULT: low polyreactivity

POLYMER SEQUENCE: QGQLVESGGGLVQAGGSLRLSCAASGFTFVGNAMGWYRQAPGKERELVATITSGGNTKYADSVKGRFTISRDNAKYTVYLQKNSLKPEDTAVYYCAAAKYNYRRFNYWGQGTQVTVSS
RECORDED RESULT: low polyreactivity

POLYMER SEQUENCE: QVQLVESGGGLVQAGGSLRLSCAASGITFSYNAMGWYRQAPGKERELVAAIRVGDGSTYYADSVKGRFTISRDNAKNTVYLQMNSLKPEDTAVNYCNARYLRLRYPYTDEYNYWGQGTQVTVSS
RECORDED RESULT: low polyreactivity

POLYMER SEQUENCE: QVQLVESGGGLVQAGGSLRLSCAASGSIFQYNAMGWYRQAPGKRELVAAINRSGGSTYYADSVKGRFTISRDYAKNTVYLQMNSLKPEDTAVYYCAAVRYDRARGSPYPDRVGVYSWGQGTQVTVSS
RECORDED RESULT: high polyreactivity

POLYMER SEQUENCE: QVQLVESGGGLVQAGGSLRLSCAASGFIFRGKAMGWYRQAPGKERELVAAISSRGGSTYYADSVKGRFTISRDNAKNSVYLQMNSLKPEDTAVYYCAAGSTSGYFRYYYWGQGTQVTVSS
RECORDED RESULT: high polyreactivity

src = the nanobody polyreactivity screen of Harvey et al. (2022)
